Taken from patent US20130251728A1.

# test system: T1, hGCGR-mmh (human)
# T1 construct: also called REGN547; monovalent hGCGR
# T1 chain: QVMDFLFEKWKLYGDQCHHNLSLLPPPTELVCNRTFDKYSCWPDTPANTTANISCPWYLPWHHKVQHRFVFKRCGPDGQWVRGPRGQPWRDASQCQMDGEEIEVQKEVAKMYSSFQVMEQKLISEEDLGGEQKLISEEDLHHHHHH
# procedure text: SPR Biacore T100, 25C, mAb captured, antigen flowed
readout type: T½ (min)
One number for each entry, in min.

* H4H1331P (antibody, V domains shown, Fully human anti-GCGR antibody; the controls are called isotype-matched hIgG4) VH: QVQLVESGGGVVQPGRSLRLSCAASGFTFSNFGMHWVRQAPGKGLEWVAVIWFDEIDKYYADSVKGRFTISRDNSKNTLYPQMNSLRAEDTAVYYCAREDYDILTGYYYAMDVWGQGTTVTVS VL: DIQMTQSPSSLSASVGDRVTITCRASQGIKNDLGWYQQKPGKAPKRLIYAASRLQSGVPSRFSGSGSGTEFTLTISSLQPEDFGTYYCLQHNSHPTFGQGTKVEIK | 104

Batch request: T½ for each of the following binders.
1. H4H1321P (antibody, V domains shown, Fully human anti-GCGR antibody; the controls are called isotype-matched hIgG4) VH: QVQLVESGGGVVQPGRSLRLSCAASGFTFSSYDMHWVRQAPGKGLEWVAVISSDGRDKYYVDSVKGRFTISRDNSKNTLYLQMNSLRAEDTAVYYCAKEMVYYDILTGYHNYYGMDVWGQGTTVTVS VL: DIQMTQSPSSLSASVGDRVTITCRASQGINNYLAWFQQKPGKAPKSLIHTASSLQSGVPSKFSGSGSGTDFTLTISSLQPEDFATYYCQQYNTYPLTFGGGTKVEIK
2. H4H1328P (antibody, V domains shown, Fully human anti-GCGR antibody; the controls are called isotype-matched hIgG4) VH: EVQLVESGGALVQPGGSLRLSCTASGFTFSNYDMHWVRQTTGKGLEWISAIDTAGDTYYPGSVKGRFTVSRENAKNSFYLQMNSLRAGDTAVYYCAREGKYYDILTGDYHYYGMDVWGQGTTVTVS VL: DIQMTQSPSSLSASVGDRVTITCRASQGIRNDLGWYQQKPGKAPKRLIYATSSLQSGVPSRFSGSGSGTEFTLTISSLQPEDFATYYCLQHNSYPLTFGGGTKLEIK

Response:
1: 3; 2: 5
